Origin of values: patent US9757477B2

Collected Ratio No 2 (ROI1/ROI2 average fluorescence intensity) values appear next to each entry.
- Test system: interscapular BAT
- Protocol: Top-down whole-organism NIR fluorescence screening of dyes (ROI1/ROI2 contrast)
- Type: in vivo, nude mice
- Run conditions: nude mice, 10 μg/mouse i.v., one hour post-injection, second excitation/emission filter pair
A bare number is all that is needed in reply.

1. CC[n+]1ccc(/C=C/C=C/c2ccc(N(C)C)cc2)c2ccccc21.[O-][Cl+3]([O-])([O-])[O-]    1.00E+00

Ask: Dear colleague, please send me the reported Ratio No 2 (ROI1/ROI2 average fluorescence intensity) for "N=c1cc2oc3cc(N)ccc3nc-2c2ccccc12" when you can.
Reply: 9.72E−01

Ask: Dear colleague, please send me the reported Ratio No 2 (ROI1/ROI2 average fluorescence intensity) for "CC[N+](CC)=c1ccc2nc3c(cc(N)c4ccccc43)oc-2c1" when you can.
Reply: 9.89E−01

Ask: Dear colleague, please send me the reported Ratio No 2 (ROI1/ROI2 average fluorescence intensity) for "CC1(C)C(/C=C/C=C/C=C/C=C2\N(CCCCS(=O)(=O)[O-])c3ccc4ccccc4c3C2(C)C)=[N+](CCCCS(=O)(=O)[O-])c2ccc3ccccc3c21.[Na+]" when you can.
Reply: 9.76E−01
